Assignment: determine reported OD450 with peptide for the given binders.
STUDY_SYSTEM: antiserum B1
ASSAY_COMMENT: competition ELISA: peptide added to B1 on plate-bound hTNFα
Answers are plain numbers.

Example entries begin here.
{"BINDER": "PCQRETPEGAEAKPW [hTNFα peptide T(100-114)]", "MEASURED_ATTRIBUTE": "OD450 with peptide", "RECORDED_NUMBER": 1.06}
{"BINDER": "NQLVVPSEGLYLIYS [hTNFα peptide T(46-60)]", "MEASURED_ATTRIBUTE": "OD450 with peptide", "RECORDED_NUMBER": 1.16}
{"BINDER": "VVANPQAEGQLQWLN [hTNFα peptide T(16-30)]", "MEASURED_ATTRIBUTE": "OD450 with peptide", "RECORDED_NUMBER": 1.06}

Report OD450 with peptide for every entry below.
1. DRLSAEINRPDYLDF [hTNFα peptide T(130-144)]
2. PIYLGGVFQLEKGDR [hTNFα peptide H(117-131)]
3. GQLQWLNRRANALLA [hTNFα peptide T(24-38)]

Result:
1.11
1.2
0.103

Q: I have this binder here, LTHTISRIAVSYQTK [hTNFα peptide T(76-90)] , and I need its recorded OD450 with peptide.
Result: 1.12
